Target: Coagulation Factor Xa, from human plasma (human, UniProt P00742 41-488, limits assumed)
Sequence (P00742 41-488 limits assumed): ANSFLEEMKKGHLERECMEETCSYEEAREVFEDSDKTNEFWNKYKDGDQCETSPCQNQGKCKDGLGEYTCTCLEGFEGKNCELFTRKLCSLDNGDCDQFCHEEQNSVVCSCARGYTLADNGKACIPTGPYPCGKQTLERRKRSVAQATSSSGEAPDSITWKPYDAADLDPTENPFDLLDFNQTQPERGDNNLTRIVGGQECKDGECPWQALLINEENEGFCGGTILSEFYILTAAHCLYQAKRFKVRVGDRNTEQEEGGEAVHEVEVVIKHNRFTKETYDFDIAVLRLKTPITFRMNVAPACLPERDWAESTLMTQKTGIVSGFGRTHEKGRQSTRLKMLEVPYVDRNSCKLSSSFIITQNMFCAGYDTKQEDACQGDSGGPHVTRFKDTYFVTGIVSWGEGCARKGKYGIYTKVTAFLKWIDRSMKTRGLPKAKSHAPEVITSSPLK
Assay: cell-based or functional assay
Readings of % inhibition at 100 µM for the listed binders
The reply should be a number in %, with the unit left off.

binder	endpoint_name	unit_annotation	value
XCTKSDPPICD (HELM PEPTIDE1{[O=C([C@@H](N[*:1])C1CCCCC1)[*:2]].C.T.K.S.D.P.P.I.C.D.[dP].P}$PEPTIDE1,PEPTIDE1,2:R3-10:R3|PEPTIDE1,PEPTIDE1,1:R1-13:R2$$$V2.0; SMILES CC[C@H](C)[C@@H]1NC(=O)[C@@H]2CCCN2C(=O)[C@@H]2CCCN2C(=O)[C@H](CC(=O)O)NC(=O)[C@H](CO)NC(=O)[C@H](CCCCN)NC(=O)[C@H]([C@@H](C)O)NC(=O)[C@@H]2CSSC[C@H](NC1=O)C(=O)N[C@@H](CC(=O)O)C(=O)N1CCC[C@@H]1C(=O)N1CCC[C@H]1C(=O)N[C@@H](C1CCCCC1)C(=O)N2) [Example 39]	% inhibition at 100 µM	%	0

(Q) Value lookup for % inhibition at 100 µM; key = FCTKSDPPICS (HELM PEPTIDE1{F.C.T.K.S.D.P.P.I.C.S.[dP].P}$PEPTIDE1,PEPTIDE1,2:R3-10:R3|PEPTIDE1,PEPTIDE1,1:R1-13:R2$$$V2.0; SMILES CC[C@H](C)[C@@H]1NC(=O)[C@@H]2CCCN2C(=O)[C@@H]2CCCN2C(=O)[C@H](CC(=O)O)NC(=O)[C@H](CO)NC(=O)[C@H](CCCCN)NC(=O)[C@H]([C@@H](C)O)NC(=O)[C@@H]2CSSC[C@H](NC1=O)C(=O)N[C@@H](CO)C(=O)N1CCC[C@@H]1C(=O)N1CCC[C@H]1C(=O)N[C@@H](Cc1ccccc1)C(=O)N2) [Example 4]
(A) 2.4

(Q) Value lookup for % inhibition at 100 µM; key = FCTKSDPPICD (HELM PEPTIDE1{F.C.T.K.S.D.P.P.I.C.D.[dP].P}$PEPTIDE1,PEPTIDE1,2:R3-10:R3|PEPTIDE1,PEPTIDE1,1:R1-13:R2$$$V2.0; SMILES CC[C@H](C)[C@@H]1NC(=O)[C@@H]2CCCN2C(=O)[C@@H]2CCCN2C(=O)[C@H](CC(=O)O)NC(=O)[C@H](CO)NC(=O)[C@H](CCCCN)NC(=O)[C@H]([C@@H](C)O)NC(=O)[C@@H]2CSSC[C@H](NC1=O)C(=O)N[C@@H](CC(=O)O)C(=O)N1CCC[C@@H]1C(=O)N1CCC[C@H]1C(=O)N[C@@H](Cc1ccccc1)C(=O)N2) [Example 2]
(A) 5.3

(Q) Value lookup for % inhibition at 100 µM; key = FCTXSDPPICY (HELM PEPTIDE1{F.C.T.[Nle].S.D.P.P.I.C.Y.[dP].P}$PEPTIDE1,PEPTIDE1,2:R3-10:R3|PEPTIDE1,PEPTIDE1,1:R1-13:R2$$$V2.0; SMILES CCCC[C@@H]1NC(=O)[C@H]([C@@H](C)O)NC(=O)[C@@H]2CSSC[C@H](NC(=O)[C@H]([C@@H](C)CC)NC(=O)[C@@H]3CCCN3C(=O)[C@@H]3CCCN3C(=O)[C@H](CC(=O)O)NC(=O)[C@H](CO)NC1=O)C(=O)N[C@@H](Cc1ccc(O)cc1)C(=O)N1CCC[C@@H]1C(=O)N1CCC[C@H]1C(=O)N[C@@H](Cc1ccccc1)C(=O)N2) [Example 23]
(A) 11
